assay: thallium influx changes without GIRK channels – cell-based, HEK-293 rmGlu8, no GIRK, thallium flux, counter-screen for GIRK activator project, confirmation (AID 623868)
condition_set: thallium flux fluorescence, at 10 µM, actives lie on both sides, codes: 1 enhancer, -1 blocker, 0 none, thallium stimulus containing EC20 glutamate
Among all 2,100 compounds or so, about 760 (36%) were called active.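 The calls were made as follows: active = thallium-flux fluorescence traces judged by eye to show enhanced or reduced glutamate response, manual score 1 or -1, so both directions (some results past the limit were not filed as active); inactive = the rest, including fluorescent or raised-baseline compounds.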 Only a sample is shown.
Pick one: Yes for active, No for inactive

Solved cases below.
C=CCCCCCCCCc1nc(=S)[nH][nH]1	Yes
O=C(NN=C(Cc1ccccc1)Cc1ccccc1)c1ccc(F)cc1	No
Cc1cc(C)nc(Sc2ncnc3sc4c(c23)CCC4)n1	Yes
COC(=O)Cn1c(CN2CCc3ccccc3C2)nc2c1c(=O)n(C)c(=O)n2C	No
Cc1cccc2c1nc(-c1ccccc1)n1cnnc21	No

Kindly consider the entry below.
Query: recorded result category for `C=CCNc1nc(N2CCCC2)nc2ccccc12` in this test
No
